Recorded Ratio IC50, one value per entry.
# Tested on: PBMC
# protocol notes: Selectivity index, ratio of IC50 for human PBMC cells to IC50 for human HL60 cells
# Type: functional
attribute measured: Ratio IC50

> print(dat)
                                   compound  tested.system  attribute.measured  quantitative.readout
1          Cc1ccc(/C=C/C(=O)c2ccc(N)cc2)cc1           PBMC          Ratio IC50                  45.8
2  CC1(C)OC2=C(C(=O)C(=O)c3ccccc32)C1Nc1ccc(C(=O)/C=C/c2ccc(-c3ccccc3)cc2)cc1 (configuration not stated)           PBMC          Ratio IC50                   4.3
3  CC1(C)OC2=C(C(=O)C(=O)c3ccccc32)C1Nc1ccc(C(=O)/C=C/c2ccccc2)cc1 (configuration not stated)           PBMC          Ratio IC50                    55
4  COc1ccc(/C=C/C(=O)c2ccc(NC3C4=C(OC3(C)C)c3ccccc3C(=O)C4=O)cc2)cc1 (configuration not stated)           PBMC          Ratio IC50                  13.3
5  CC1(C)OC2=C(C(=O)C(=O)c3ccccc32)C1n1cc(CNC2=CC(=O)c3ccccc3C2=O)nn1 (configuration not stated)           PBMC          Ratio IC50                   0.6
6  CC1(C)OC2=C(C(=O)C(=O)c3ccccc32)C1n1cc(CNC2=C(Cl)C(=O)c3ccccc3C2=O)nn1 (configuration not stated)           PBMC          Ratio IC50                   0.6
7             Nc1ccc(C(=O)/C=C/c2ccccc2)cc1           PBMC          Ratio IC50                   3.1
